Attribution: patent US6737383B1

System: duck salad
Assay: Test B flood test duck salad
Type: in vivo, Heteranthera limosa
Settings: Rate 62 g/ha; flood test species, Pre-emergence; visual evaluation after twelve to sixteen days
Measured Parameter: Plant response rating, Ducksalad (0 to 10 scale, 0 is no effect, 10 is complete control)
Note: the reply should be a number with no unit written.

Q: # get_value(readout='Plant response rating, Ducksalad (0 to 10 scale, 0 is no effect, 10 is complete control)', item= "CC(C)N(C(=O)n1oc(=O)n(CSC#N)c1=O)c1ccc(F)cc1" )
A: 0

Q: Bench note: what Plant response rating, Ducksalad (0 to 10 scale, 0 is no effect, 10 is complete control) did CC(C)N(C(=O)n1oc(=O)n(N2C(C)CCCC2C)c1=O)c1ccc(F)cc1 (stereo not shown) show?
A: 0

Q: // returns reported Plant response rating, Ducksalad (0 to 10 scale, 0 is no effect, 10 is complete control) for input "C=CCCCn1c(=O)on(C(=O)N(c2ccc(Cl)cc2)C(C)C)c1=O"
A: 0

Q: I would be grateful if you could share the reported Plant response rating, Ducksalad (0 to 10 scale, 0 is no effect, 10 is complete control) for "CCCCCCn1c(=O)on(C(=O)N(c2ccc(F)cc2)C(C)C)c1=O" .
A: 0

Q: May I ask what Plant response rating, Ducksalad (0 to 10 scale, 0 is no effect, 10 is complete control) has been recorded for "CC(C)N(C(=O)n1oc(=O)n(CCCl)c1=O)c1ccccc1" ?
A: 0

Q: Any idea what Plant response rating, Ducksalad (0 to 10 scale, 0 is no effect, 10 is complete control) was measured for CC1CC1n1c(=O)on(C(=O)N(c2ccc(Cl)cc2)C(C)C)c1=O (stereo not shown) ?
A: 0

Q: May I ask what Plant response rating, Ducksalad (0 to 10 scale, 0 is no effect, 10 is complete control) has been recorded for "CC(C)N(C(=O)n1oc(=O)n(CC2CCC2)c1=O)c1ccccc1" ?
A: 0

Q: Any idea what its Plant response rating, Ducksalad (0 to 10 scale, 0 is no effect, 10 is complete control) is? The compound is "Cc1nnsc1Cn1c(=O)on(C(=O)N(c2ccccc2)C(C)C)c1=O"
A: 0

Q: Record request: Plant response rating, Ducksalad (0 to 10 scale, 0 is no effect, 10 is complete control) value, item CCC(C)n1c(=O)on(C(=O)N(c2ccccc2)C(C)C)c1=O (stereo not shown)
A: 0

Q: Entry under review: C#CC(C)n1c(=O)on(C(=O)N(c2ccc(F)cc2F)C(C)C)c1=O (racemic) . Reported Plant response rating, Ducksalad (0 to 10 scale, 0 is no effect, 10 is complete control)?
A: 0
